Target: Mer (Homo sapiens (Human), UniProt Q12866)
Sequence (Q12866 21-999): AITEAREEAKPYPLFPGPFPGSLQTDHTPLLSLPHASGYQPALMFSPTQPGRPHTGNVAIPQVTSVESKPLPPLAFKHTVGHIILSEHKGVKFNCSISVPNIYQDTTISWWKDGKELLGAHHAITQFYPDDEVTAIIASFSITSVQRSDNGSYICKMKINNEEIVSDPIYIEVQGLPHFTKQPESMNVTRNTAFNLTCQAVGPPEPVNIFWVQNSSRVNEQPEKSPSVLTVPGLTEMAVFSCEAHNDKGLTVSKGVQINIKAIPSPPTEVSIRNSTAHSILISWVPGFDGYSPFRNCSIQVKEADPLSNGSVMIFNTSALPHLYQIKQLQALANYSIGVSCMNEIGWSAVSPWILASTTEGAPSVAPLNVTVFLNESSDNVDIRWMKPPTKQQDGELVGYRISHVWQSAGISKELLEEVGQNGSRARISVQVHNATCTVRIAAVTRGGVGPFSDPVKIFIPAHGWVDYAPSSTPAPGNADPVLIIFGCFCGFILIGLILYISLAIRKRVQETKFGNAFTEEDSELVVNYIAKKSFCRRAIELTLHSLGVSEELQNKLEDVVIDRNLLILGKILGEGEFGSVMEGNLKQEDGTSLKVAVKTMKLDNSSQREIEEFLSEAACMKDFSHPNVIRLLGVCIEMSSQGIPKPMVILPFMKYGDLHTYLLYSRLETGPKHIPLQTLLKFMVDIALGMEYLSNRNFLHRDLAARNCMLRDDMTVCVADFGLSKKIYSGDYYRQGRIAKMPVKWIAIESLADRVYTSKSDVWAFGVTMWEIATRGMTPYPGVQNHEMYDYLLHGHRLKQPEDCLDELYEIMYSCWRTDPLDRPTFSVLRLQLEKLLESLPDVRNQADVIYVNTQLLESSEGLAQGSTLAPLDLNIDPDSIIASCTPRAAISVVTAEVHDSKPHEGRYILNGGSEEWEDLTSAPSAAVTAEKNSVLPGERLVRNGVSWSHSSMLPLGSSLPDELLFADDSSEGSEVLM
Assay: Mer autophosphorylation ELISA in transient transfected 293A cells
Conditions: cellular, MERTK transfected 293A cells
Structures can show the parent of a compound that is named as a salt.
This section presents compounds with their documented IC50 values.

Please report the measured IC50 for CCc1noc(-c2cc3c(Oc4ccc(NC(=O)C5(C(=O)Nc6ccc(F)cc6)CC5)cc4)ccnc3cc2OC)n1 [Compound 283, Hydrochloride]
10 to 100 nM

====

Target: Met (Homo sapiens (Human), UniProt P08581)
Sequence (P08581 25-1390): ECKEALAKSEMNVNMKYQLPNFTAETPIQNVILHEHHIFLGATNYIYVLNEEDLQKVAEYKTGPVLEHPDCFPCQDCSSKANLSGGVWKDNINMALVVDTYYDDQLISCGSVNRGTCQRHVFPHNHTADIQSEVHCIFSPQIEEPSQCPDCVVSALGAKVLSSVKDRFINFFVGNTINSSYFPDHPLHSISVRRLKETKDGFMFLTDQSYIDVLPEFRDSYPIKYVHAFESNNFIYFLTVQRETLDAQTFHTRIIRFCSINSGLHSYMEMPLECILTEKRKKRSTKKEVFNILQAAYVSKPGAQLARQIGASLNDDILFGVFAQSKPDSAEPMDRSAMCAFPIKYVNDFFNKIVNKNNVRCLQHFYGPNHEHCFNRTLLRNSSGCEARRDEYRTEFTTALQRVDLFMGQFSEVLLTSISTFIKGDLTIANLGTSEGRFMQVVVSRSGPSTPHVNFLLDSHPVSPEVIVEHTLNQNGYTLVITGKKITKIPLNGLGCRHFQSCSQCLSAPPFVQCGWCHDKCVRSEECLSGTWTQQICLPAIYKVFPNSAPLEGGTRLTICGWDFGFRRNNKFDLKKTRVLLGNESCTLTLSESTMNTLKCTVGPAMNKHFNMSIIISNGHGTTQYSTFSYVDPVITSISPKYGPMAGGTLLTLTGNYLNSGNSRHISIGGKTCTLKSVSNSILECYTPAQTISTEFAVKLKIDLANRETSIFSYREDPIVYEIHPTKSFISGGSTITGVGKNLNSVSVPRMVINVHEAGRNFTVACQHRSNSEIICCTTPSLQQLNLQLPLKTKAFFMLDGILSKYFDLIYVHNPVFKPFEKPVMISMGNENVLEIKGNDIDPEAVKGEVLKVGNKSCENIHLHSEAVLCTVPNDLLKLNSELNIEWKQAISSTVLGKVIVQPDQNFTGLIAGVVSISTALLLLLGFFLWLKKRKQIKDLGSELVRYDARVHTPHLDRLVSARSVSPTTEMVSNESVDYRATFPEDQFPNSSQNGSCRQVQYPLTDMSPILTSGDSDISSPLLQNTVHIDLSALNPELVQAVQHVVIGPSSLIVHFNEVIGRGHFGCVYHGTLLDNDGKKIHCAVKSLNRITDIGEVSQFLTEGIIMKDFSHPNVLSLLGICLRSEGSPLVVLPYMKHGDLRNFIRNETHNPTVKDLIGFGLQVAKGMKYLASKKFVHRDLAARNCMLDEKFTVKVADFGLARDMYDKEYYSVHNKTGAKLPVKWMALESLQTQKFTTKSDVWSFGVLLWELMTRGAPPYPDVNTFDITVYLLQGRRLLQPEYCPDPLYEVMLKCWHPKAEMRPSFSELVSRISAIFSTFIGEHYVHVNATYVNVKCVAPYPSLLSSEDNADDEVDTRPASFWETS
Experiment: Met autophosphorylation ELISA in PC-3 cells
Details: cellular, HGF stimulated, read-out: c-Met IC50
pIC50: −log10 of the molar value.
value.kind: pIC50

Below: 5 compounds and their reported pIC50.
chemical.string: COC(=O)c1cc2c(Oc3ccc(NC(=O)C4(C(=O)Nc5ccc(F)cc5)CC4)cc3)ccnc2cc1N
pIC50: 7.00 to 8.00

chemical.string: COc1cc2c(Oc3ccc(NC(=O)C4(C(=O)Nc5ccc(F)cc5)CC4)cc3)ccnc2cc1C(N)=O
pIC50: 6.52 to 7.00

chemical.string: CNC(=O)c1cc2nccc(Oc3c(F)cc(NC(=O)C4(C(=O)Nc5ccc(F)cc5)CC4)c(F)c3F)c2cc1C
pIC50: 7.00 to 8.00

chemical.string: COc1cc2nccc(Oc3ccc(NC(=O)C4(C(=O)Nc5ccc(F)cc5)CC4)cc3)c2cc1-c1cccnc1
pIC50: 7.00 to 8.00

chemical.string: COc1cc2nccc(Oc3ccc(NC(=O)C4(C(=O)Nc5ccc(F)cc5)CC4)cc3)c2cc1C(=O)NOC1COC1
pIC50: 7.00 to 8.00

Provide only the value of recorded pIC50 for NC(=O)c1cc2c(Oc3ccc(NC(=O)C4(C(=O)Nc5ccc(F)cc5)CC4)cc3)ccnc2cc1OCCCN1CCOCC1
≥ 8.00

State its pIC50: COc1cc2nccc(Oc3ccc(NC(=O)C4(C(=O)Nc5ccc(F)cc5)CC4)cc3)c2cc1C(=O)NCCN1CCCCC1
7.00 to 8.00

====

Target: Met (Homo sapiens (Human), UniProt P08581)
Experiment: Met autophosphorylation ELISA in PC-3 cells
Conditions: cellular, HGF stimulated, read-out: c-Met IC50
Method: PC-3 prostate cancer cells (ATCC #CRL-1435) were seeded at 4×10^4 cells/well onto 24-well plates (Greiner #662165), in DMEM (Thermo Fisher #11995-040) containing 10% FBS (Thermo Fisher #26140-079), 1% MEM NEAA (Thermo Fisher #11140-050), 1% GlutaMax (Thermo Fisher #35050-061), and 1% Penicillin Streptomycin (Thermo Fisher #15140-122). […] IC50 values were calculated by nonlinear regression analysis using a 4-parameter logistic curve fit in ActivityBase XE (IDBS).
value.kind: IC50

compound: CNC(=O)c1cc2c(Oc3ccc(NC(=O)C4(C(=O)Nc5ccc(F)cc5OC)CC4)cc3F)ccnc2cc1OC [Compound 268]
IC50: 10 to 100 nM
--
compound: COc1cc2nccc(Oc3ccc(NC(=O)C4(C(=O)Nc5ccc(F)cc5)CC4)cc3)c2cc1C(=O)NN [Compound 32]
IC50: 10 to 100 nM

Okay, now this compound:
Name the value of IC50 reported for COc1cc2nccc(Oc3ccc(NC(=O)C4(C(=O)Nc5ccc(F)cc5)CC4)cc3)c2cc1C(C)=O [Compound 34] when tested on Met (Homo sapiens (Human), UniProt P08581).
10 to 100 nM
